Where do these numbers come from? They come from ChEMBL document CHEMBL2010801.

test system: Nakaseomyces glabratus; assay: Antifungal activity against Candida glabrata ATCC 90030 after 24 hrs by broth microdilution method; assay type: functional
Calls of active or inactive are those of the source. The rule behind the calls is not given here.

chemical-string	MIC50
CC(C)=CCC[C@]1(C)[C@@H](CC=C(C)C)C[C@@]2(CC=C(C)C)C(=O)C(C(=O)c3ccc(OC(=O)c4ccc(Cl)cc4)c(OC(=O)c4ccc(Cl)cc4)c3)=C(O)[C@]1(CC=C(C)C)C2=O	inactive
C[C@@H]1[C@H](O)[C@@H](C)/C=C/C=C/C=C/C=C/C=C/C=C/C=C/[C@H](O[C@@H]2O[C@H](C)[C@@H](O)[C@H](N)[C@@H]2O)C[C@@H]2O[C@](O)(C[C@@H](O)C[C@@H](O)[C@H](O)CC[C@@H](O)C[C@@H](O)CC(=O)O[C@H]1C)C[C@H](O)[C@H]2C(=O)O	inactive
CC(C)=CCC[C@]1(C)[C@@H](CC=C(C)C)C[C@@]2(CC=C(C)C)C(=O)C(C(=O)c3ccc(OC(=O)c4ccccc4)c(OC(=O)c4ccccc4)c3)=C(O)[C@]1(CC=C(C)C)C2=O	inactive
CC(C)=CCC[C@]1(C)[C@@H](CC=C(C)C)C[C@@]2(CC=C(C)C)C(=O)C(C(=O)c3ccc(OS(=O)(=O)c4ccc(C)cc4)c(OS(=O)(=O)c4ccc(C)cc4)c3)=C(O)[C@]1(CC=C(C)C)C2=O	inactive

* * *

test system: Trichophyton tonsurans; test: Antifungal activity against Trichophyton tonsurans after 48 hrs by broth microdilution method; type: functional
Calls of active or inactive are those of the source. No cut-off for these calls is given here.
measurement-label: MIC100

chemical-string	measurement-label	recorded-value
CC(C)=CCC[C@]1(C)[C@@H](CC=C(C)C)C[C@@]2(CC=C(C)C)C(=O)C(C(=O)c3ccc(OC(=O)c4ccccc4)c(OC(=O)c4ccccc4)c3)=C(O)[C@]1(CC=C(C)C)C2=O	MIC100	inactive
CC(C)=CCC[C@]1(C)[C@@H](CC=C(C)C)C[C@@]2(CC=C(C)C)C(=O)C(C(=O)c3ccc(OS(=O)(=O)c4ccc(C)cc4)c(OS(=O)(=O)c4ccc(C)cc4)c3)=C(O)[C@]1(CC=C(C)C)C2=O	MIC100	inactive
CC(C)=CCC[C@]1(C)[C@@H](CC=C(C)C)C[C@@]2(CC=C(C)C)C(=O)C(C(=O)c3ccc(OS(C)(=O)=O)c(OS(C)(=O)=O)c3)=C(O)[C@]1(CC=C(C)C)C2=O	MIC100	inactive
CC(C)=CCC[C@]1(C)[C@@H](CC=C(C)C)C[C@@]2(CC=C(C)C)C(=O)C(C(=O)c3ccc(OC(=O)c4ccc(Cl)cc4)c(OC(=O)c4ccc(Cl)cc4)c3)=C(O)[C@]1(CC=C(C)C)C2=O	MIC100	inactive

* * *

tested on: Bacillus cereus; experiment: Antimicrobial activity against Bacillus cereus ATCC 11778 after 24 hrs by broth microdilution method; assay type: functional; conditions: ATCC 11778, 24 h
# MIC50 per entry
// units = µM; emit number, no label

Some entries whose results are on file:
chemical-string	value-unit	recorded-value
CC(C)=CCC[C@]1(C)[C@@H](CC=C(C)C)C[C@@]2(CC=C(C)C)C(=O)C(C(=O)c3ccc(OS(C)(=O)=O)c(OS(C)(=O)=O)c3)=C(O)[C@]1(CC=C(C)C)C2=O	µM	1650
CC(C)=CCC[C@]1(C)[C@@H](CC=C(C)C)C[C@@]2(CC=C(C)C)C(=O)C(C(=O)c3ccc(OS(=O)(=O)c4ccc(C)cc4)c(OS(=O)(=O)c4ccc(C)cc4)c3)=C(O)[C@]1(CC=C(C)C)C2=O	µM	171
O=C(N[C@H](CO)[C@H](O)c1ccc([N+](=O)[O-])cc1)C(Cl)Cl	µM	4820
CC(C)=CCC[C@]1(C)[C@@H](CC=C(C)C)C[C@@]2(CC=C(C)C)C(=O)C(C(=O)c3ccc(OC(=O)OC(C)(C)C)c(O)c3)=C(O)[C@]1(CC=C(C)C)C2=O	µM	1800

Then there is this compound:
// recorded MIC50 for CC(C)=CCC[C@]1(C)[C@@H](CC=C(C)C)C[C@@]2(CC=C(C)C)C(=O)C(C(=O)c3ccc(OC(=O)c4ccc(Cl)cc4)c(OC(=O)c4ccc(Cl)cc4)c3)=C(O)[C@]1(CC=C(C)C)C2=O : 354
